Test system: LNCaP tumor xenograft-bearing CB17-SCID mice
Format: in vivo, mouse
RECORDED_CONDITIONS: 24 h p.i.
Would you mind telling me the reported Biodistribution Kidneys of each entry?

The cases that follow already have their Biodistribution Kidneys on record.
INSERT INTO results (compound, target_desc, experimental_readout, reading) VALUES
  ('CSCC[C@H](NC(=O)CC[C@H](NC(=O)N[C@@H](CCC(=O)N[C@H](CCCNC(=O)CCC(=O)NCCCC[C@@H](NC(=O)[C@@H](CNC(=O)c1ccc([Si](F)(C(C)(C)C)C(C)(C)C)cc1)NC(=O)CN1CCN(CC(=O)[O-])CCN(CC(=O)[O-])CCN(CC(=O)[O-])CC1)C(=O)O)C(=O)O)C(=O)O)C(=O)O)C(=O)O.[Lu+3] [^natLu/[^177Lu]Lu-5]', 'LNCaP tumor xenograft-bearing CB17-SCID mice', 'Biodistribution Kidneys', '0.48 ± 0.02 % ID/g'),
  ('CCCCCCC(NC(=O)C(CCC(=O)O)NC(=O)NC(CCC(=O)NC(CCCNC(=O)CCC(=O)NCCCCC(NC(=O)C(CNC(=O)c1ccc([Si](F)(C(C)(C)C)C(C)(C)C)cc1)NC(=O)CN1CCN(CC(=O)[O-])CCN(CC(=O)[O-])CCN(CC(=O)[O-])CC1)C(=O)O)C(=O)O)C(=O)O)C(=O)O.[Lu+3] (centres unmarked) [^natLu/[^177Lu]Lu-7]', 'LNCaP tumor xenograft-bearing CB17-SCID mice', 'Biodistribution Kidneys', '2.04 ± 0.75 % ID/g'),
  ('CC(C)(C)[Si](F)(c1ccc(C(=O)NC[C@@H](NC(=O)CN2CCN(CC(=O)[O-])CCN(CC(=O)[O-])CCN(CC(=O)[O-])CC2)C(=O)N[C@H](CCCCNC(=O)CCC(=O)NCCC[C@@H](NC(=O)CC[C@H](NC(=O)N[C@@H](CCc2nnn[nH]2)C(=O)O)C(=O)O)C(=O)O)C(=O)O)cc1)C(C)(C)C.[Lu+3] [^natLu/[^177Lu]Lu-11]', 'LNCaP tumor xenograft-bearing CB17-SCID mice', 'Biodistribution Kidneys', '3.23 ± 0.77 % ID/g'),
  ('CC(C)(C)[Si](F)(c1ccc(C(=O)NC[C@@H](NC(=O)CN2CCN(CC(=O)[O-])CCN(CC(=O)[O-])CCN(CC(=O)[O-])CC2)C(=O)N[C@H](CCCCNC(=O)CCC(=O)NCCC[C@@H](NC(=O)CC[C@H](NC(=O)O[C@@H](CCC(=O)O)C(=O)O)C(=O)O)C(=O)O)C(=O)O)cc1)C(C)(C)C.[Lu+3] [^natLu/[^177Lu]Lu-3]', 'LNCaP tumor xenograft-bearing CB17-SCID mice', 'Biodistribution Kidneys', '0.31 ± 0.05 % ID/g');

Attention now shifts to the item below.
Given the compound C#CC[C@H](NC(=O)N[C@@H](CCC(=O)N[C@H](CCCNC(=O)CCC(=O)NCCCC[C@@H](NC(=O)[C@@H](CNC(=O)c1ccc([Si](F)(C(C)(C)C)C(C)(C)C)cc1)NC(=O)CN1CCN(CC(=O)[O-])CCN(CC(=O)[O-])CCN(CC(=O)[O-])CC1)C(=O)O)C(=O)O)C(=O)O)C(=O)O.[Lu+3] [^natLu/[^177Lu]Lu-10] , what is its reported Biodistribution Kidneys?
1.29 ± 0.28 % ID/g
